# targetOfAssay: human TRPV1 receptor (hTRPV1) (Homo sapiens (Human), UniProt Q8NER1)
# Sequence (Q8NER1 whole entry): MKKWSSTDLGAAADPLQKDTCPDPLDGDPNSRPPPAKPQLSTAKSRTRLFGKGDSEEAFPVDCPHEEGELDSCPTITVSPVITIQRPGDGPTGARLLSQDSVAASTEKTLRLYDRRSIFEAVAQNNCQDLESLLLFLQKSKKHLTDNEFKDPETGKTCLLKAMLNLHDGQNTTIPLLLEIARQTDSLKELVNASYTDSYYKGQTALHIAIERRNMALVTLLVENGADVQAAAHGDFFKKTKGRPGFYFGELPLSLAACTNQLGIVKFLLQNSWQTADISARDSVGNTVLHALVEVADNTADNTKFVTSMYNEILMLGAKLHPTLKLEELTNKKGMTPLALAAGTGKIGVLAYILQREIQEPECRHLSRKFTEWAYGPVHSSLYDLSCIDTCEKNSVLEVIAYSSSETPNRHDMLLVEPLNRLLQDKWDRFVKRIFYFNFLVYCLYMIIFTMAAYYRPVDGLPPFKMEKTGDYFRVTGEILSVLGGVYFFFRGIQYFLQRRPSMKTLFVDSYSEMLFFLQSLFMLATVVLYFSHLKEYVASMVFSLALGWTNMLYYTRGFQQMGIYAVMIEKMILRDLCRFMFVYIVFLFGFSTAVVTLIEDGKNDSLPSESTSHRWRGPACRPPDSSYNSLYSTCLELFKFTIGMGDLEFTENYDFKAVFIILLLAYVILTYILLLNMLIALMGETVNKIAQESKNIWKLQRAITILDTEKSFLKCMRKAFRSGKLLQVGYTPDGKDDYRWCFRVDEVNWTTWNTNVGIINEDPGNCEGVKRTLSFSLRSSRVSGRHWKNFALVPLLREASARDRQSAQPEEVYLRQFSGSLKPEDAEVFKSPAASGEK
# methodSummary: Capsaicin activation assay (FLIPR intracellular Ca2+)
# Format: cell-based
# conditionLabel: Table 1; inhibition of capsaicin-induced intracellular Ca2+ increase, HEK293 cells expressing human TRPV1; read-out: hTRPV1 cap IC50
pIC50: −log10 of the molar value.
Listing of entries alongside the reported pIC50.

>  <compound>
Cc1cc2c(NC(=O)N[C@@H]3CC[C@@H](c4ccccc4F)C3)c(F)ccc2cn1

>  <targetOfAssay>
human TRPV1 receptor (hTRPV1) (Homo sapiens (Human), UniProt Q8NER1)

>  <operatorSymbol>
=

>  <pIC50>
8.48

$$$$
>  <compound>
O=C(Nc1cccc2[nH]ncc12)NC1CCCC(c2ccc(C(F)(F)F)cc2)C1 (centres unmarked)

>  <targetOfAssay>
human TRPV1 receptor (hTRPV1) (Homo sapiens (Human), UniProt Q8NER1)

>  <operatorSymbol>
=

>  <pIC50>
5.98

$$$$
>  <compound>
CC(C)Cc1cc2c(NC(=O)N[C@@H]3CC[C@H](c4ccccc4)C3)c(F)ccc2cn1

>  <targetOfAssay>
human TRPV1 receptor (hTRPV1) (Homo sapiens (Human), UniProt Q8NER1)

>  <operatorSymbol>
<

>  <pIC50>
4.43

$$$$
>  <compound>
Cn1ncc2c(NC(=O)N[C@@H]3CC[C@@H](c4cccc(F)c4)C3)cccc21

>  <targetOfAssay>
human TRPV1 receptor (hTRPV1) (Homo sapiens (Human), UniProt Q8NER1)

>  <operatorSymbol>
=

>  <pIC50>
7.60

$$$$
>  <compound>
Cc1cc2c(NC(=O)N[C@@H]3CC[C@@H](c4ccccc4)C3)c(F)ccc2cn1

>  <targetOfAssay>
human TRPV1 receptor (hTRPV1) (Homo sapiens (Human), UniProt Q8NER1)

>  <operatorSymbol>
=

>  <pIC50>
8.30

$$$$

###

# targetOfAssay: human TRPV1 receptor (hTRPV1) (Homo sapiens (Human), UniProt Q8NER1)
# methodSummary: Capsaicin activation assay (FLIPR intracellular Ca2+)
# Assay type: cell-based
# conditionLabel: Table 1; inhibition of capsaicin-induced intracellular Ca2+ increase, HEK293 cells expressing human TRPV1; read-out: hTRPV1 cap IC50
pIC50: −log10 of the molar value.

>  <molecule>
O=C(Nc1cccc2[nH]ncc12)N[C@@H]1CC[C@@H](c2ccc(C(F)(F)F)cc2)C1 [Example 44]

>  <pIC50>
6.77

$$$$
>  <molecule>
Cn1ncc2c(NC(=O)N[C@H]3CC[C@@H](c4cccc(F)c4)C3)cccc21 [Example 102]

>  <pIC50>
6.66

$$$$
>  <molecule>
Cn1ncc2c(NC(=O)N[C@@H]3CC[C@@H](c4ccccc4)C3)cccc21 [Example 18]

>  <pIC50>
7.15

$$$$
>  <molecule>
Cc1cc2c(NC(=O)N[C@@H]3CC[C@@H](c4cccc(F)c4)C3)c(F)ccc2cn1 [Example 84]

>  <pIC50>
8.27

$$$$
>  <molecule>
O=C(Nc1cccc2[nH]ncc12)N[C@@H]1CC[C@H](c2ccccc2)C1 [Example 7]

>  <pIC50>
8.05

$$$$
>  <molecule>
Cc1coc([C@@H]2CC[C@H](NC(=O)Nc3cccc4[nH]ncc34)C2)n1 (single isomer, unassigned) [Example 122]

>  <pIC50>
4.69

$$$$
>  <molecule>
O=C(Nc1cccc2[nH]ncc12)N[C@H]1C[C@@H](c2ccccc2)C1 [Example 56]

>  <pIC50>
7.85

$$$$
>  <molecule>
Cc1cc2c(NC(=O)N[C@H]3CC[C@H](c4nc(C)cs4)C3)c(F)ccc2cn1 [Example 134]

>  <pIC50>
6.81

$$$$

###

# targetOfAssay: UniProt Q8NER1
# methodSummary: Acid activation assay (pH 5.0, FLIPR intracellular Ca2+)
# Format: cell-based
# conditionLabel: Table 1; 37.5 μM antagonist, percentage of the maximal pH 5.0-induced response remaining; read-out: hTRPV1 H+ (max % remain)
# Procedure: Dulbecco's modified Eagle's medium (DMEM) with 4.5 mg/mL D-glucose, fetal bovine serum, L-glutamine, and 2-morpholinoethanesulfonic acid (MES) were purchased from Sigma-Aldrich Co. (St. Louis, Mo.). […] The functional activity of compounds at the TRPV1 receptor was determined by measurement of intracellular Ca^2+ levels ([Ca^2+]i) using the Fluorescence Imaging Plate Reader (FLIPR)^TETRA®. […]
Exam item: assign T to entries whose remaining activity at 37.5 µM is below 50% and F to entries at or above 50%. Note that a value of exactly 50% receives F.

>  <molecule>
Cc1nc(N)cc2c(NC(=O)N[C@@H]3CC[C@H](c4ccccc4)C3)cccc12

>  <labelValue>
F

$$$$
>  <molecule>
O=C(Nc1cccc2c1C[C@@H](O)C2)N[C@H]1CC[C@@H](c2ccccc2)C1

>  <labelValue>
F

$$$$
>  <molecule>
O=C(Nc1cccc2[nH]ncc12)N[C@H]1CC[C@H](c2cccc(F)c2)C1

>  <labelValue>
T

$$$$
>  <molecule>
O=C(Nc1cccc2c1CCC2)N[C@H]1CC[C@H](c2ccccc2)C1

>  <labelValue>
T

$$$$
>  <molecule>
Cc1coc([C@@H]2CC[C@H](NC(=O)Nc3cccc4[nH]ncc34)C2)n1 (single isomer, unassigned)

>  <labelValue>
F

$$$$
>  <molecule>
O=C(Nc1cccc2[nH]ncc12)N[C@@H]1CC[C@H](c2nc(C(F)(F)F)cs2)C1 (relative stereo)

>  <labelValue>
T

$$$$
>  <molecule>
O=C(Nc1cccc2[nH]ncc12)NC1CC[C@H](c2ccc(F)cc2)C1 (some centres unmarked)

>  <labelValue>
T

$$$$

###

# targetOfAssay: human TRPV1 receptor (hTRPV1) (Homo sapiens (Human), UniProt Q8NER1)
# methodSummary: Acid activation assay (pH 5.0, FLIPR intracellular Ca2+)
# Assay type: cell-based
# conditionLabel: Table 1; 37.5 μM antagonist, percentage of the maximal pH 5.0-induced response remaining; read-out: hTRPV1 H+ (max % remain)
outcomeMeasure: remaining activity at 37.5 µM (%)

>  <molecule>
O=C(Nc1cccc2c1C[C@@H](O)C2)N[C@H]1CC[C@H](c2ccccc2)C1 [Example 9]

>  <readoutValue>
14

$$$$
>  <molecule>
O=C(Nc1cccc2c1C[C@@H](O)CC2)N[C@H]1CC[C@@H](c2ccccc2)C1 [Compound B, reference compound]

>  <readoutValue>
1

$$$$
>  <molecule>
O=C(Nc1cccc2[nH]ncc12)N[C@@H]1C[C@H](c2ccccc2)[C@@H]2[C@H]1C2(F)F [Example 54]

>  <readoutValue>
69

$$$$
>  <molecule>
CN(C)c1ccc([C@H]2CCC(NC(=O)Nc3cccc4[nH]ncc34)C2)cc1 (some centres unmarked) [Example 47]

>  <readoutValue>
3

$$$$
>  <molecule>
Cc1cc2c(NC(=O)N[C@H]3CC[C@H](c4ccccc4F)C3)c(F)ccc2cn1 [Example 71]

>  <readoutValue>
15

$$$$
>  <molecule>
O=C(Nc1cccc2c1C[C@@H](O)C2)N[C@@H]1CC[C@@H](c2cccc(F)c2)C1 [Example 86]

>  <readoutValue>
0

$$$$
>  <molecule>
O=C1CCc2ccc(NC(=O)N[C@@H]3CC[C@H](c4ccccc4)C3)cc2N1 [Example 5]

>  <readoutValue>
81

$$$$
>  <molecule>
O=C(Nc1cccc2[nH]ncc12)N[C@@H]1CC[C@H](c2cccc(F)c2)C1 [Example 65]

>  <readoutValue>
12

$$$$

###

# targetOfAssay: human TRPV1 receptor (hTRPV1) (Homo sapiens (Human), UniProt Q8NER1)
# methodSummary: Capsaicin activation assay (FLIPR intracellular Ca2+)
# Assay type: cell-based
# conditionLabel: Table 2; inhibition of capsaicin-induced intracellular Ca2+ increase; read-out: hTRPV1 cap IC50
Recorded IC50 determines the group label, using group 1 (below 8 nM), group 2 (8 nM to below 30 nM), group 3 (30 nM or more)

>  <compound>
Cn1ncc2c(NC(=O)N[C@@H]3CC[C@H](c4ccccc4)C3)cccc21 [Example 4]

>  <labelValue>
group 2

$$$$
>  <compound>
O=C(Nc1cccc2[nH]ncc12)N[C@@H]1C=C[C@H](c2ccccc2)C1 [Example 48]

>  <labelValue>
group 3

$$$$
>  <compound>
Cc1cc2c(NC(=O)N[C@@H]3CC[C@H](c4ccccc4)C3)c(F)ccc2cn1 [Example 6]

>  <labelValue>
group 1

$$$$
>  <compound>
Cc1cc2c(NC(=O)N[C@@H]3CC[C@@H](c4ccccc4)C3)c(F)ccc2cn1 [Example 20]

>  <labelValue>
group 1

$$$$
>  <compound>
Cn1c(=O)ccc2c(NC(=O)N[C@@H]3CC[C@@H](c4cccc(F)c4)C3)cccc21 [Example 78]

>  <labelValue>
group 1

$$$$
>  <compound>
O=C(Nc1cccc2[nH]ncc12)N[C@H]1CC[C@@H](c2ccccc2)C1 [Example 28]

>  <labelValue>
group 3

$$$$
>  <compound>
O=C(Nc1cccc2[nH]ncc12)N[C@@H]1CC[C@H](c2ccccc2)C1 [Example 7]

>  <labelValue>
group 2

$$$$
>  <compound>
O=C(Nc1cccc2c1C[C@@H](O)C2)N[C@@H]1CC[C@H](c2ccccc2)C1 [Example 2]

>  <labelValue>
group 2

$$$$
>  <compound>
CN1C(=O)CCc2c(NC(=O)N[C@H]3CC[C@H](c4ccccc4)C3)cccc21 [Example 96]

>  <labelValue>
group 3

$$$$
>  <compound>
O=C(Nc1cccc2[nH]ncc12)N[C@@H]1CC[C@@H](c2ccccc2)C1 [Example 21]

>  <labelValue>
group 2

$$$$
>  <compound>
Cc1cc2c(NC(=O)N[C@H]3CC[C@@H](c4ccccc4)C3)c(F)ccc2cn1 [Example 27]

>  <labelValue>
group 1

$$$$
>  <compound>
Cn1c(=O)ccc2c(NC(=O)N[C@@H]3CC[C@H](c4ccccc4)C3)cccc21 [Example 51]

>  <labelValue>
group 2

$$$$
